target: Rap guanine nucleotide exchange factor 3 (Homo sapiens); assay: Counterscreen qHTS for agonist of cAMP-regulated guanine nucleotide exchange factor 3 (EPAC1) (AID 1645889); settings: EPAC1 Rap1B-BODIPY-GDP exchange, fluorescence; series mostly up to 154 µM; further: % of control where 0% means no effect; nearly all actives have a fitted effect of over 40% in size
Records with an inconclusive call do not appear. The source made the active and inactive calls. The call rests on the fitted dose curve; in most records, active means well fitted activation curve with a large enough effect; inconclusive means small, poorly fitted or top-dose-only effect, or another doubt; inactive means no such curve, though single readings can be large or run the other way.
QUANTITY_MEASURED: activation

Use the examples below as a reference point.
| COMPOUND | TGT | activation |
| --- | --- | --- |
| O=C(N/N=C/c1ccc(O)c([N+](=O)[O-])c1)C1CC1(c1ccccc1)c1ccccc1 (centres undefined) | Rap guanine nucleotide exchange factor 3 (Homo sapiens) | 11.6% [at 30.8 µM] (inactive) |
| CCOc1ccc(-c2cccc(NC(=O)c3ccco3)c2)nn1 | Rap guanine nucleotide exchange factor 3 (Homo sapiens) | inactive |
| O=C(c1ccccc1)c1ccc(O)cc1O | Rap guanine nucleotide exchange factor 3 (Homo sapiens) | 6.44% [at 30.8 µM] (inactive) |
| Cc1[nH]c2ccc(C(=O)OC(C)C(=O)N(C)c3ccccc3)cc2c1C (centres undefined) | Rap guanine nucleotide exchange factor 3 (Homo sapiens) | inactive |
| CCN1C(=O)/C(=C/c2ccc(OCc3ccc(C(=O)O)cc3)c(Cl)c2)NC1=S | Rap guanine nucleotide exchange factor 3 (Homo sapiens) | inactive |
| COc1cc(NC(=O)C2CCCCC2)c(OC)cc1NC(=O)CN1CCCCC1 | Rap guanine nucleotide exchange factor 3 (Homo sapiens) | 11.1% [at 30.8 µM] (inactive) |

Problem: Would you mind telling me what activation value was observed for CCC/C=C/c1ccc(CN2C(CC(C)C)C(=O)N(Cc3cn(CCC4OCCO4)nn3)CCS2(=O)=O)cc1 (centres undefined) ?
Solution: inactive

Problem: Would you mind telling me what activation value was observed for COc1cc2c(c(OC)c1OC)C(c1ccc3c(c1)OCO3)CC(=O)O2 (centres undefined) ?
Solution: 18.7% [at 30.8 µM] (inactive)

----------
biological target: Rap guanine nucleotide exchange factor 3 (Homo sapiens) (UniProt O95398); assay: Confirmatory qHTS for antagonist of cAMP-regulated guanine nucleotide exchange factor 3 (EPAC1) (AID 1645880); settings: EPAC1 Rap1B-BODIPY-GDP exchange, fluorescence; further: nearly all actives have a fitted effect of over 55% in size
Sequence (O95398 whole entry, looked up): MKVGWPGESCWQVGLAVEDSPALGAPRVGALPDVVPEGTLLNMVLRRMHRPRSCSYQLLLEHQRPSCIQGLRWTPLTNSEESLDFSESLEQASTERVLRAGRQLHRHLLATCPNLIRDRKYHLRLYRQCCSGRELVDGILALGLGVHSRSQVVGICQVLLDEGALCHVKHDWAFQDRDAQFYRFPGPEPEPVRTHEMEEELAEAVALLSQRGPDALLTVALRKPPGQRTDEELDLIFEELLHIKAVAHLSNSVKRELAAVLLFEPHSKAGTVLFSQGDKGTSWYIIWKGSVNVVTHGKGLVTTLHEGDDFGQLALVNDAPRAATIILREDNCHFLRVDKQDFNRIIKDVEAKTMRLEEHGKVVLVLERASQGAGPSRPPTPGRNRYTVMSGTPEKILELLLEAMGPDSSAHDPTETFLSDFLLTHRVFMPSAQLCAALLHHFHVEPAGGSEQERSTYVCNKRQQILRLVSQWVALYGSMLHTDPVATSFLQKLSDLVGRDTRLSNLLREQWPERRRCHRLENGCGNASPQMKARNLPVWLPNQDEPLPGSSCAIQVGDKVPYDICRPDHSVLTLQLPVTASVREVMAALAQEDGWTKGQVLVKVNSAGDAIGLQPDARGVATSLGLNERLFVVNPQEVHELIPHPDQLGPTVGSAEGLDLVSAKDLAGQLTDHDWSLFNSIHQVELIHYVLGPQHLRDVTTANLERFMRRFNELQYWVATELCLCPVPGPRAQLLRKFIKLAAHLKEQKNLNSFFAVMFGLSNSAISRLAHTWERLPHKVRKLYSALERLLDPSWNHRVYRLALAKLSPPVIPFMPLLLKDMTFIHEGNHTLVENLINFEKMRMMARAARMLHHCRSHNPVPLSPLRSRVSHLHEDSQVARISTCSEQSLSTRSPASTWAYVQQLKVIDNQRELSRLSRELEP
Inconclusive results are not listed. Activity calls are given as the source filed them. Calls come from the whole dose curve; as a rule, active = well fitted inhibition curve with a large enough effect; inconclusive = small, poorly fitted or top-dose-only effect; inactive = no such curve, though single readings can be large or run the other way.
Write down one outcome, taken from 1 (active), -1 (inactive)

Problem: What classification did `O=C(NCc1ccc(F)cc1)c1cccc2c1C(=O)c1ccc(N3CCOCC3)cc1S2(=O)=O` end up with in this test?
Solution: -1

Problem: What classification did `O=C(O)c1ccccc1NS(=O)(=O)c1ccc(NN=Cc2cccc(Cl)c2)c([N+](=O)[O-])c1` end up with in this test?
Solution: 1

Problem: What classification did `O=S(=O)(N/N=C/c1cccnc1)c1ccc(Cl)c(Cl)c1` end up with in this test?
Solution: -1

Problem: What classification did `Cc1ccc(S(=O)(=O)NN2C(=O)/C(=C/c3cccnc3)SC2=S)cc1` end up with in this test?
Solution: 1

Problem: What classification did `Nc1ccccc1Oc1ccc2ccccc2c1` end up with in this test?
Solution: -1

Problem: What classification did COc1ccc(C2CC(=O)c3ccccc3O2)cc1 (centres undefined) end up with in this test?
Solution: -1

Problem: What classification did `COc1ccccc1-c1oc2ccccc2c1-c1ccc2c(c1)OCO2` end up with in this test?
Solution: -1

Problem: What classification did `COc1cc(Br)cc(C(=O)N2CCc3ccccc32)c1OC` end up with in this test?
Solution: -1

Problem: What classification did `Cn1c(N)c(C(=O)COC(=O)C2(c3ccc(Cl)cc3)CCCC2)c(=O)n(C)c1=O` end up with in this test?
Solution: -1

Problem: What classification did `Cc1ccc(N=Cc2cc(Cc3ccccc3Cl)cc([N+](=O)[O-])c2O)c(O)c1` end up with in this test?
Solution: 1

Problem: What classification did COc1cc(CN2C(=O)C(C)ON=C2c2cccs2)cc(OC)c1 (centres undefined) end up with in this test?
Solution: -1

Problem: What classification did `COc1cccc(Nc2ncc3nc(-c4cc(F)cc(F)c4)c(=O)n(CCC#N)c3n2)c1` end up with in this test?
Solution: -1

Problem: What classification did `CCOC(=O)c1cc(-c2nnc(SCC(=O)Nc3ccc(F)cc3)o2)c(C)nc1C` end up with in this test?
Solution: -1

Problem: What classification did `O=C(Cc1c(Cl)cccc1Cl)Nc1ccc(S(=O)(=O)Nc2ncccn2)cc1` end up with in this test?
Solution: -1

Problem: What classification did `CCCCn1c(N)c(N(CCOC)C(=O)c2cccc(S(=O)(=O)N(C)c3ccc(C)cc3)c2)c(=O)[nH]c1=O` end up with in this test?
Solution: -1

Problem: What classification did `Cc1ccc(-c2csc3ncnc(Nc4ccc(C(=O)O)cc4)c23)cc1` end up with in this test?
Solution: -1

Problem: What classification did `COc1ccc(CCNC(=O)CCCn2c(SCC(N)=O)nc3cc4c(cc3c2=O)OCO4)cc1OC` end up with in this test?
Solution: -1

Problem: What classification did `CN(C(=O)CSc1nc2[nH]ncc2c(=O)[nH]1)c1ccccc1` end up with in this test?
Solution: -1

Problem: What classification did `COC(=O)CCc1nc2cc(Cl)ccc2n(Cc2ccccc2)c1=O` end up with in this test?
Solution: -1

Problem: What classification did `Cc1ccc2oc(=O)c(/C=C(\O)c3cccs3)nc2c1` end up with in this test?
Solution: -1

Problem: What classification did `Cc1ccn2c(-c3csc(NCc4ccccc4)n3)c(C)nc2c1` end up with in this test?
Solution: -1

Problem: What classification did `O=C(NCc1ccco1)c1sc(=S)n2c1[nH]c(=O)c1ccccc12` end up with in this test?
Solution: 1

Problem: What classification did `C/C(CC(=O)Nc1ccc2ccccc2c1)=N\NC(=O)c1ccc(O)c(O)c1` end up with in this test?
Solution: 1

Problem: What classification did `Cc1ccccc1-c1cc2nc(NCCN3CCNC3=O)n(C)c(=O)c2s1` end up with in this test?
Solution: -1

----------
target: Dual specificity protein kinase CLK4 (Homo sapiens); test: qHTS Assay for Inhibitors of CDC-like Kinase 4 (Kinase-Glo Assay) (AID 1770); conditions: recombinant Clk4, Kinase-Glo ATP depletion luminescence; series mostly up to 66.7 µM; further: nearly all actives have a fitted effect of over 65% in size
Results filed as inconclusive are left out. The source made the active and inactive calls. Calls come from the whole dose curve; as a rule, active = well fitted inhibition curve with a large enough effect; inconclusive = small, poorly fitted or top-dose-only effect; inactive = flat fitted curve, though single readings scatter.
Write down one outcome, taken from active, inactive

Problem: What classification did `O=c1c(-c2ccccc2)nc2cnc(N3CCOCC3)nc2n1CCc1ccccc1` end up with in this test?
Solution: inactive

Problem: What classification did `Cc1cnc(CNc2ncnc3ccc(-c4ccc(N(C)C)cc4)cc23)cn1` end up with in this test?
Solution: active

Problem: What classification did `COc1ccc(Oc2ncc3nc(-c4ccccc4)c(=O)n(C[C@H]4CCCO4)c3n2)cc1` end up with in this test?
Solution: inactive

Problem: What classification did `COc1cccc(-c2cncnc2NCCc2c[nH]c3ccc(OC)cc23)c1` end up with in this test?
Solution: active

Problem: What classification did `COc1cccc(-c2ccc3ncnc(N4CCNCC4)c3c2)c1` end up with in this test?
Solution: active

Problem: What classification did `Cc1cccc(CNc2ncncc2-c2ccccc2CN(C)C)c1` end up with in this test?
Solution: inactive

Problem: What classification did `N#CCCn1c(=O)c(-c2cccc(C#N)c2)nc2cnc(Oc3cccc(Cl)c3)nc21` end up with in this test?
Solution: inactive

Problem: What classification did `COc1ccc2[nH]cc(CCNc3ncnc4ccc(-c5ccccc5OC)cc34)c2c1` end up with in this test?
Solution: active

Problem: What classification did `Clc1ccccc1-c1ccc2ncnc(NCCN3CCOCC3)c2c1` end up with in this test?
Solution: active

Problem: What classification did `COc1ccc(Oc2ncc3nc(-c4ccc(F)cc4)c(=O)n(CCC#N)c3n2)cc1` end up with in this test?
Solution: inactive

Problem: What classification did `Cn1cc(-c2nc3cnc(N4CCNCC4)nc3n(CCc3ccccc3)c2=O)c2ccccc21` end up with in this test?
Solution: inactive

Problem: What classification did `CN(Cc1ccco1)c1cc(-c2ccc3c(c2)OCO3)ncn1` end up with in this test?
Solution: active

Problem: What classification did `COc1ccccc1-c1ccc2ncnc(N3CCNCC3)c2c1` end up with in this test?
Solution: active

Problem: What classification did `COCCn1c(=O)c(-c2ccc(F)cc2)nc2cnc(Oc3ccccc3)nc21` end up with in this test?
Solution: inactive

Problem: What classification did `COc1ccc2[nH]cc(CCNc3ncncc3-c3ccoc3)c2c1` end up with in this test?
Solution: active

Problem: What classification did `Clc1ccccc1-c1nc(-n2ccnc2)c2ccccc2n1` end up with in this test?
Solution: active

Problem: What classification did `COc1ncc2nc(CCc3ccccc3)c(=O)n(-c3ccccc3)c2n1` end up with in this test?
Solution: inactive

Problem: What classification did `CN1CCN(c2ncc3nc(-c4cccc(C#N)c4)c(=O)n(CCc4ccccc4)c3n2)CC1` end up with in this test?
Solution: inactive

Problem: What classification did `COc1ccc2[nH]cc(CCNc3ncncc3-c3ccccc3Cl)c2c1` end up with in this test?
Solution: active

Problem: What classification did `Cc1noc(C)c1-c1nc(N2CCN(C)CC2)c2ccccc2n1` end up with in this test?
Solution: active

Problem: What classification did `CC(=O)NCCNc1nc(-c2cccc(C#N)c2)nc2ccccc12` end up with in this test?
Solution: active

Problem: What classification did `COc1ccccc1CNc1ncncc1-c1ccccc1Cl` end up with in this test?
Solution: inactive

Problem: What classification did `c1ccc(CNc2nc(-c3cccnc3)nc3ccccc23)cc1` end up with in this test?
Solution: active

Problem: What classification did `O=c1c(CCc2ccccc2)nc2cnc(Oc3ccccc3)nc2n1C1CC1` end up with in this test?
Solution: inactive

Problem: What classification did `CN(Cc1ccco1)c1nc(-c2ccccc2C(F)(F)F)nc2ccccc12` end up with in this test?
Solution: active

Problem: What classification did `O=c1c(-c2ccccc2)nc2cnc(Oc3ccccc3)nc2n1C[C@H]1CCCO1` end up with in this test?
Solution: inactive

Problem: What classification did `COc1cccc(Nc2ncc3nc(-c4cccs4)c(=O)n(C[C@H]4CCCO4)c3n2)c1` end up with in this test?
Solution: inactive

Problem: What classification did `COc1ccccc1-c1ccc2ncnc(N3CCOCC3)c2c1` end up with in this test?
Solution: active

Problem: What classification did `Cc1nc2cnc(Oc3cccc(Cl)c3)nc2n(Cc2ccc(F)cc2)c1=O` end up with in this test?
Solution: inactive

Problem: What classification did `COc1ccccc1-c1nc(Nc2ccncc2)c2ccccc2n1` end up with in this test?
Solution: active

Problem: What classification did `CCNc1ncc2nc(CCc3ccccc3)c(=O)n(C3CC3)c2n1` end up with in this test?
Solution: inactive

Problem: What classification did `COc1ccc(-c2nc3cnc(N4CCOCC4)nc3n(-c3ccc(OC)cc3)c2=O)cc1` end up with in this test?
Solution: inactive
